Sourced from ChEMBL document CHEMBL1147942

Test: Inhibition of fMLP-induced elastase release from human PMN cells
Format: functional, cell-based
attribute_measured: IC50

>>> experimental_value("Cc1c(N2CCCCCC2)nc(C2CC2)nc1N1CCC1")
"190 nM"
>>> experimental_value("Cc1c(N2CCCCCC2)nc(C2CC2)nc1N1CC(F)C1")
"380 nM"

---

Target: Muscarinic acetylcholine receptor M3 (Homo sapiens, UniProt P20309)
Sequence (P20309 whole entry): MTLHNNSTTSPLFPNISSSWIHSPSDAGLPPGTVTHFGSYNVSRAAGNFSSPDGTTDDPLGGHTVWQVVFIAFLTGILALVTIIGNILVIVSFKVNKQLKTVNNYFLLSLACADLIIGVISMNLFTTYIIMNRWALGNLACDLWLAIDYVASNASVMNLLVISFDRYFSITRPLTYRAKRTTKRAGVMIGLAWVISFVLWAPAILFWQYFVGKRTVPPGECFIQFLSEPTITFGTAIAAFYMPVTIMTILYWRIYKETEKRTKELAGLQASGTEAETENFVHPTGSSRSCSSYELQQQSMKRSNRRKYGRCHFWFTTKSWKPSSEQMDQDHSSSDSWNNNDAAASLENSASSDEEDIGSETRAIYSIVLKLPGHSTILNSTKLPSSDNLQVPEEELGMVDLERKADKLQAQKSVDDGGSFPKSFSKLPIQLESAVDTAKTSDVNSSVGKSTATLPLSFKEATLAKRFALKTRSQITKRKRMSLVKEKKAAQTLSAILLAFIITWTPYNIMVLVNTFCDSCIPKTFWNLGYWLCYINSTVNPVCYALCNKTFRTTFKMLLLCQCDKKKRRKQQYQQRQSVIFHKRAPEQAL
Test: Displacement of [3H]N-methylscopolamine from human recombinant M3 muscarinic receptor expressed in CHO cell membrane
pKi: −log10 of the molar value.
Listing of entries alongside the reported pKi.
attribute_measured: pKi

>>> experimental_value("CC1CN(c2cc(N3CCCCCC3)nc(C3CC3)n2)C1")
7.89
>>> experimental_value("Cc1c(N2CCCCCC2)nc(C2CC2)nc1N1CCCCCC1")
7.40
>>> experimental_value("Cc1c(N2CCCCCC2)nc(C2CC2)nc1N1CC(=O)C1")
6.20
>>> experimental_value("Cc1c(N2CCCCCC2)nc(C2CC2)nc1N1CCC1")
7.80
>>> experimental_value("Cc1c(N2CCCCCC2)nc(C2CC2)nc1N1CCCCC1")
7.10
>>> experimental_value("COC1CN(c2nc(C3CC3)nc(N3CCCCCC3)c2C)C1")
7.40
>>> experimental_value("Cc1c(N2CCCCCC2)nc(C2CC2)nc1N1CC(C)(C)C1")
7.49
>>> experimental_value("c1c(N2CCCCCC2)nc(C2CC2)nc1N1CCC1")
7.10
>>> experimental_value("Cc1c(N2CCCCCC2)nc(C2CC2)nc1N1CC(C)C1")
7.70
>>> experimental_value("Cc1c(N2CCCCCC2)nc(C2CC2)nc1N1CC(F)C1")
6.70
>>> experimental_value("Cc1c(N2CCCCCC2)nc(C2CC2)nc1N1CCCC1")
8.89
>>> experimental_value("FC1CN(c2cc(N3CCCCCC3)nc(C3CC3)n2)C1")
6.30
>>> experimental_value("Cc1c(N2CCCCCC2)nc(C2CC2)nc1N1CC(O)C1")
6.80
>>> experimental_value("Cc1c(N2CCCCCC2)nc(C2CC2)nc1N1CC(C#N)C1")
6.10
